EXPERIMENT_NOTES: clinical
CONDITION_SET: male, human, in vivo, po
METRIC_NAME: CL/F (mL/min/kg)
Give bare numbers, in mL/min/kg.

Nc1nc(NC2CC2)c2ncn([C@H]3C=C[C@@H](CO)C3)c2n1 [Abacavir, abacavir] | 9

Could you now consider this next compound?
(Q) Indicate the recorded CL/F value for this compound: C[C@@H]1CCO[C@H]2Cn3cc(C(=O)NCc4ccc(F)cc4F)c(=O)c(O)c3C(=O)N12 [Dolutegravir, dolutegravir]
(A) 0.167

---

EXPERIMENT_NOTES: clinical
CONDITION_SET: both, human, in vivo, po
METRIC_NAME: concentration at 24 h (ng/mL)
Give bare numbers, in ng/mL.

Before answering, review these 2 worked examples.
Nc1ccn([C@@H]2CS[C@H](CO)O2)c(=O)n1 [Lamivudine, lamivudine] | 38.7
Nc1nc(NC2CC2)c2ncn([C@H]3C=C[C@@H](CO)C3)c2n1 [Abacavir, abacavir] | 6.75

(Q) // fetch concentration at 24 h given entry C[C@@H]1CCO[C@H]2Cn3cc(C(=O)NCc4ccc(F)cc4F)c(=O)c(O)c3C(=O)N12 [Dolutegravir, dolutegravir]
(A) 1150

---

Kindly state CL/F for each of the entries shown.
EXPERIMENT_NOTES: clinical
CONDITION_SET: female, human, in vivo, po

C[C@@H]1CCO[C@H]2Cn3cc(C(=O)NCc4ccc(F)cc4F)c(=O)c(O)c3C(=O)N12 | 0.167 mL/min/kg

// moving on: another record for CL/F
(Q) Identify measured CL/F associated with Nc1nc(NC2CC2)c2ncn([C@H]3C=C[C@@H](CO)C3)c2n1
(A) 10.5 mL/min/kg

---

EXPERIMENT_NOTES: clinical
CONDITION_SET: female, human, in vivo, po
Can you tell me Tmax for the items I'm about to list?
Give bare numbers, in h.

Nc1nc(NC2CC2)c2ncn([C@H]3C=C[C@@H](CO)C3)c2n1 | 1.51
C[C@@H]1CCO[C@H]2Cn3cc(C(=O)NCc4ccc(F)cc4F)c(=O)c(O)c3C(=O)N12 | 2.98

(Q) Give the value of Tmax reported for the following: Nc1ccn([C@@H]2CS[C@H](CO)O2)c(=O)n1
(A) 2.98

---

EXPERIMENT_NOTES: clinical
CONDITION_SET: both, human, in vivo, po
METRIC_NAME: half-life
Please answer using a numeric value trailed by its unit.

(Q) Tell me half-life reported for Nc1nc(NC2CC2)c2ncn([C@H]3C=C[C@@H](CO)C3)c2n1
(A) 2.84 h
